The reported measurements were obtained from patent US5843941A.

test system: farnesylated proteins F1, F2 and F3 in Met18b-2 cells; experiment: Inhibition of intracellular farnesylation in intact Met18b-2 cells, Triton-soluble proteins F1, F2, F3; type: cell-based, Chinese hamster; conditions: Cricetulus griseus, read-out: EC 90% "B isomer"
Listing of recorded log10 of EC90 by entry.
Annotation: log10 of EC90, µM basis.

Below, 2 compounds whose answers are already recorded.
COC(=O)[C@H](CCSC)NC(=O)CN1C(=O)C(N(C)C(=O)[C@@H](N)CSSC(C)(C)C)N=C(c2ccccc2)c2ccccc21 (stereo partly drawn)
1.00
CSCC[C@H](NC(=O)CN1C(=O)C(N(C)C(=O)[C@@H](N)CSSC(C)(C)C)N=C(c2ccccc2)c2ccccc21)C(=O)OC1CCCCC1 (stereo partly drawn)
0.60

// sample CSCC[C@H](NC(=O)CN1C(=O)C(N(C)C(=O)[C@@H](N)CSSC(C)(C)C)N=C(c2ccccc2)c2cc(Cl)ccc21)C(=O)OC1CCCCC1 (stereo partly drawn) , its log10 of EC90 was 0.30

log10 of EC90 recorded for this compound, COC(=O)c1cccc(CN2C(=O)C(N(C)C(=O)[C@@H](N)CSSC(C)(C)C)N=C(c3ccccc3)c3cc(Cl)ccc32)c1 (stereo partly drawn) , is 1.48

Entry CN(C(=O)[C@@H](N)CSSC(C)(C)C)C1N=C(c2ccccc2)c2cc(Cl)ccc2N(CC(=O)N[C@@H](Cc2ccccc2)c2nnn[nH]2)C1=O (stereo partly drawn) ; log10 of EC90 = 1.48

CSCC[C@H](NC(=O)CN1C(=O)C(N(C)C(=O)[C@@H](N)CSSC(C)(C)C)N=C(c2ccccc2)c2cc(Cl)ccc21)c1nnn[nH]1 (stereo partly drawn) yielded log10 of EC90 of 1.78

Lab book: log10 of EC90 of CCOC(=O)[C@H](CCSC)NC(=O)CN1C(=O)C(N(C)C(=O)C2CSC(C)N2)N=C(c2ccccc2)c2ccccc21 (stereo partly drawn) noted as 1.00

// field: log10 of EC90; key: COC(=O)c1cccc(CN2C(=O)C(N(C)C(=O)[C@@H]3CSC(C)N3)N=C(c3ccccc3)c3cc(Cl)ccc32)c1 (stereo partly drawn) ; value = 1.48

Per the record, CN(C(=O)[C@@H](N)CSSC(C)(C)C)C1N=C(c2ccccc2)c2cc(Cl)ccc2N(CC(=O)N[C@@H](Cc2ccccc2)C(N)=O)C1=O (stereo partly drawn) has log10 of EC90 of 1.70

* * *

Overview of reported EC50 across a group of compounds:
biological target: CAAX farnesyltransferase (Rattus norvegicus, UniProt Q02293+Q04631); assay: In vitro inhibition of CAAX farnesyltransferase; format: biochemical; design: purified to homogeneity from rat brain homogenates; from tissue; host or cells: rat brain; alternatively recombinant enzyme from a baculovirus expression system; conditions: diastereomer B; Table D; read-out: EC50 (μM) "B"
Sequence (Q02293 whole entry, one chain of several): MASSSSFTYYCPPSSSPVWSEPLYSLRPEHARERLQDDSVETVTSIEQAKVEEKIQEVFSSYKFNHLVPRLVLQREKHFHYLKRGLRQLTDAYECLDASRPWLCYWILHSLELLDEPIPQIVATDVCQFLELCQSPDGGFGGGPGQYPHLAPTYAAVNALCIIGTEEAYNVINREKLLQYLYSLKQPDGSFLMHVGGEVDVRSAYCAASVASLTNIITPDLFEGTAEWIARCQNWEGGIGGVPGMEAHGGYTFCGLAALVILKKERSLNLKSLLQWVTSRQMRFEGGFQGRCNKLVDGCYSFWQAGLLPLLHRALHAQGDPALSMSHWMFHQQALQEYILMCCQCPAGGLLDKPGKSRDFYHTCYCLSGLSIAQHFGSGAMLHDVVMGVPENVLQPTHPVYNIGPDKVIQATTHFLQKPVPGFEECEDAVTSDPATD
Enter your answer as a number in µM; do not include the unit.

CC(C)[C@H](NC(=O)CN1C(=O)C(N(C)C(=O)[C@@H](N)CS)N=C(c2ccccc2)c2ccccc21)C(=O)O (stereo partly shown)
0.0008

response.value for CN(C(=O)[C@@H](N)CS)C1N=C(c2ccccc2)c2cc(Cl)ccc2N(CC(=O)N[C@@H](Cc2ccc(F)cc2)C(=O)O)C1=O (stereo partly shown) (field: EC50) = 0.0008

C[C@@H](O)[C@H](NC(=O)CN1C(=O)C(N(C)C(=O)[C@@H](N)CS)N=C(c2ccccc2)c2ccccc21)C(=O)O (stereo partly shown) yielded EC50 of 0.0017

Measured EC50, CSCC[C@H](NC(=O)CN1C(=O)C(NC(=O)[C@@H](N)CS)N=C(c2ccccc2)c2ccccc21)C(=O)O (stereo partly shown) : 0.431

The value of EC50 measured for the compound CN(C(=O)[C@@H](N)CS)C1N=C(c2ccccc2)c2cc(Cl)ccc2N(CC(=O)N[C@@H](Cc2ccccc2)C(N)=O)C1=O (stereo partly shown) turned out to be 0.0036

* * *

target: CAAX farnesyltransferase (Rattus norvegicus, UniProt Q02293+Q04631); assay: In vitro inhibition of CAAX farnesyltransferase; assay type: biochemical; design: purified to homogeneity from rat brain homogenates; from tissue; host or cells: rat brain; alternatively recombinant enzyme from a baculovirus expression system; conditions: diastereomer B; Table D; read-out: EC50 (μM) "B"
Examples of compounds with documented EC50 follow.
Note: unit µM is implicit; provide only the numeric part.

COC(=O)c1cccc(CN2C(=O)C(N(C)C(=O)[C@@H](N)CS)N=C(c3ccccc3)c3cc(Cl)ccc32)c1 (some centres unmarked)
0.0003
CSCC[C@H](NC(=O)CN1C(=O)C(N(C)C(=O)[C@@H](N)CS)N=C(c2ccccc2)c2ccccc21)C(=O)O (some centres unmarked)
0.0003
CN(C(=O)[C@@H](N)CS)C1N=C(c2ccccc2)c2cc(Cl)ccc2N(Cc2ccc(C#N)cc2)C1=O (some centres unmarked)
0.0009

Here's the next entry for you.
The reported value for CSCC[C@H](NC(=O)CN1C(=O)C(N(C)C(=O)[C@@H](N)CS)N=C(c2ccccc2)c2ccccc21)C(N)=O (some centres unmarked) in terms of EC50 is 0.019
